Each record here notes measured abundance fitness.
B1: Far upstream element-binding protein 3, residues 75 to 150; numbered along this chain, Q96I24 (parent)
chain: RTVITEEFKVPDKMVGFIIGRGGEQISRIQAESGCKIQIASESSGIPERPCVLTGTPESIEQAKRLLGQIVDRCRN

Variants of: B1
Experiment: abundance fitness (aPCA) (normalised: wild type 0, dead -1); higher = more abundant; growth selection in yeast, the domain comes from the species named
Details: Homo sapiens
Response field accepts a number only; no unit should be typed.

Worked examples follow.
E58K    0.045
I26C    -0.21
I19E    -0.081

Given E58P , state its recorded abundance fitness. -0.108

Fill in the blank: the reported abundance fitness of S27R is ____. 0.068

I have this variant here, I18Y , and I need its recorded abundance fitness. -0.261

Item under review: C74T . Reported abundance fitness? 0.004

For V52L , what is its reported abundance fitness? -0.023

Please give the measured abundance fitness for this variant: Q38C -0.053

Find the recorded abundance fitness belonging to T54F and report it. -0.378

What abundance fitness value was documented for this variant, S44I ? -0.07

Report abundance fitness for T54I please. -0.065

Item T56S has what recorded abundance fitness? -0.013

Tell me the measured abundance fitness of I46L , please. 0.018

Record request: abundance fitness value, item N76I -0.178

Which measured abundance fitness value corresponds to S43Q ? -0.055
